# TARGET OR TEST SYSTEM: Ubiquitin carboxyl-terminal hydrolase 17-like protein 5 (Homo sapiens) (UniProt A8MUK1)
# Sequence (A8MUK1 whole entry, looked up): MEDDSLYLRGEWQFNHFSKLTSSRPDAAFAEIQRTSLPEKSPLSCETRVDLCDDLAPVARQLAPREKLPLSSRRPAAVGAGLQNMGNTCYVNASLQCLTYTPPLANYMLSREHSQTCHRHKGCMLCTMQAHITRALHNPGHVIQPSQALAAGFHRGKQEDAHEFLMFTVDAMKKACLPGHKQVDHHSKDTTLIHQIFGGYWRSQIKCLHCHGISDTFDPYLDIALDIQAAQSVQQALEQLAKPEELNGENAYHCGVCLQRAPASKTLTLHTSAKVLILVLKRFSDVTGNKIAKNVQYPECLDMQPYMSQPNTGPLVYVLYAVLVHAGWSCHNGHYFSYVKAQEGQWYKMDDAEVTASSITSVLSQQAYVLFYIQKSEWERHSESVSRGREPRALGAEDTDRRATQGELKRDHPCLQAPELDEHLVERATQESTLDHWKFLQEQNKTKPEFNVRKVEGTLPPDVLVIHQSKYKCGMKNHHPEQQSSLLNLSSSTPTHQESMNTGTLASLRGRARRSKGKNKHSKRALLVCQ
# METHOD: ubiquitin-specific protease 17 DUB inhibitors, concentration-effect assay, cell-free, verification of initial screening actives (AID 1645864)
# ASSAY SETUP: purified USP17, ubiquitin-rhodamine cleavage fluorescence, 3 h
Activity calls are given as the source filed them.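 Rule for the calls: active = maximal inhibition of USP17 at or above 30% in the confirmation dose-response, a value not among the printed readouts; inactive = the rest.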
Reply using exactly one outcome from yes (active), no (inactive)

O=C(Nc1cccc(F)c1)c1ncoc1-c1ccco1 ... no

Qu. I would be grateful if you could indicate the recorded call for CCOc1ccc(NC(=O)Cn2cc(C(=O)c3ccc(Cl)cc3)c(=O)c3cc(OC)ccc32)cc1 .
Ans. yes

* * *

# TARGET OR TEST SYSTEM: Ubiquitin carboxyl-terminal hydrolase 17-like protein 5 (Homo sapiens) (UniProt A8MUK1)
# METHOD: ubiquitin-specific protease 17 DUB inhibitors, concentration-effect assay, cell-free, verification of initial screening actives (AID 1645864)
# ASSAY SETUP: purified USP17, ubiquitin-rhodamine cleavage fluorescence, 3 h
Activity calls are given as the source filed them.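 The calls were made as follows: active = maximal inhibition of USP17 at or above 30% in the confirmation dose-response, a value not among the printed readouts; inactive = the rest.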
Reply using exactly one outcome from active, inactive

O=C(CCc1nnc2n(Cc3ccc(F)cc3)c(=O)c3ccccc3n12)N1CCN(c2ccccn2)CC1 ... inactive
O=C(Nc1cccc(-c2nc3ccccc3[nH]2)c1)c1cc2ccccc2oc1=O ... active
Cc1nn(C)c2c1[C@@H](c1ccc(F)cc1)[C@H](NC(=O)c1ccccc1)C(=O)N2 ... inactive

Qu. I would be grateful if you could indicate the recorded call for COc1ccc(C(=O)Nc2cc(F)c3nc(N4CCOCC4)ccc3c2)c(OC)c1 .
Ans. active

Qu. Next up: O=C1c2c(O)cccc2C2(Oc3cccc4cccc(c34)O2)C2OC12 (stereo not given)
Ans. active

Qu. Next up: O=C(CN1C=NC2=NS(=O)(=O)c3ccccc3N21)Nc1cc(F)ccc1F
Ans. active

Qu. Next up: Cc1nc(N2CCCC2)ncc1-c1cc(=O)[nH]c(N2CCc3ccccc3C2)n1
Ans. active

Qu. Next up: CCNc1oc(-c2ccc(S(=O)(=O)N3CCCCC3)cc2)nc1C#N
Ans. active

Qu. Next up: COc1ccccc1-c1nc2c3c(C)c(C)n(Cc4cccnc4)c3ncn2n1
Ans. inactive

Qu. Next up: Cc1ccc(NC(=O)c2cc(=O)n(C)c3c2c(=O)n(C)c(=O)n3C)c(C)c1
Ans. inactive

* * *

# TARGET OR TEST SYSTEM: Ubiquitin carboxyl-terminal hydrolase 17-like protein 5 (Homo sapiens) (UniProt A8MUK1)
# METHOD: ubiquitin-specific protease 17 DUB inhibitors, concentration-effect assay, cell-free, verification of initial screening actives (AID 1645864)
# ASSAY SETUP: purified USP17, ubiquitin-rhodamine cleavage fluorescence, 3 h
Active and inactive are the calls of the source.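 Rule for the calls: active = maximal inhibition of USP17 at or above 30% in the confirmation dose-response, a value not among the printed readouts; inactive = the rest.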
Reply using exactly one outcome from active, inactive

Qu. I would be grateful if you could indicate the recorded call for COc1ccccc1CNC(=O)c1ccccc1OCc1ccccc1Cl .
Ans. inactive

Qu. Next up: O=C(NCc1ccccc1Cl)c1ccc2cn[nH]c2c1
Ans. inactive

Qu. Next up: Cc1ccn(-c2ccc(NC(=O)c3ccccc3Sc3ccccc3C#N)cc2)n1
Ans. active

Qu. Next up: Cc1ccc(C(=O)Nc2cc3c4c(c2)CC(=O)N4CCC3)cc1C
Ans. inactive

Qu. Next up: Cc1ccccc1C(=O)Nc1ccc(Cc2ccc(NC(=O)c3ccccc3C)c(O)c2)cc1O
Ans. inactive

Qu. Next up: COc1ccc(C)cc1NC(=O)C(NS(=O)(=O)c1ccc2c(c1)CCN2C(C)=O)C(C)C (stereo unspecified)
Ans. inactive

Qu. Next up: c1ccc2c(c1)CCc1c-2nc2ccccc2c1N1CCOCC1
Ans. inactive

Qu. Next up: N#Cc1c(-c2ccccc2)ccn(Cc2cccc(C(F)(F)F)c2)c1=O
Ans. active

Qu. Next up: Cc1nc2nc(SCc3nc4ccccc4n3C)[nH]c2cc1Br
Ans. active

Qu. Next up: COc1ccc(-c2cc(N3CCC(NC(=O)c4ccccc4)C3)n[nH]2)cc1 (stereo unspecified)
Ans. active

Qu. Next up: CNC(=O)c1cc2nc(N(C)C)n(-c3ccc(F)cc3)c2s1
Ans. inactive

* * *

# TARGET OR TEST SYSTEM: Ubiquitin carboxyl-terminal hydrolase 17-like protein 5 (Homo sapiens) (UniProt A8MUK1)
# METHOD: ubiquitin-specific protease 17 DUB inhibitors, concentration-effect assay, cell-free, verification of initial screening actives (AID 1645864)
# ASSAY SETUP: purified USP17, ubiquitin-rhodamine cleavage fluorescence, 3 h
Activity calls are given as the source filed them.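 The calls were made as follows: active = maximal inhibition of USP17 at or above 30% in the confirmation dose-response, a value not among the printed readouts; inactive = the rest.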
Reply using exactly one outcome from label 1 (active), label 0 (inactive)

Past entries and their recorded results:
CC(=O)c1cccc(NC(=O)c2ccc(N3CCCCC3)nn2)c1 ... label 1
Cc1ccc(NC(=O)c2nnn(-c3ccccc3Br)c2C)cc1C ... label 0
O=C(OCc1ccc(F)cc1)c1ccc2ccccc2n1 ... label 0
O=C(Cn1cncc(-c2nc(-c3ccccc3)cs2)c1=O)NC1CCCC1 ... label 1
CC(C)=CCC/C(C)=C/Cc1c(O)cc2c(c1O)C(=O)OC2 ... label 1
O=C(Nc1ccc(N2CCOCC2)cc1)c1ccc(-c2ccc(N3CCCC3)nn2)cc1 ... label 0
COc1cc(Cl)ccc1Nc1ncc(C(=O)Nc2cc(OC)c(OC)c(OC)c2)c2ccccc12 ... label 1
CC(C)c1nc2sc3c(NCc4ccco4)ncnc3c2c2c1CCC2 ... label 0

Qu. I would be grateful if you could indicate the recorded call for CCOc1ccccc1NC(=O)Cn1c(-c2ccc3c(c2)OCO3)cn(-c2ccc(OC)cc2)c1=O .
Ans. label 0

Qu. Next up: CCC(=O)Nc1nc2cc(NC(=O)Nc3cc(C)cc(C)c3)ccc2s1
Ans. label 1

Qu. Next up: CCCc1nc2sc3c(NCCCN4CCOCC4)ncnc3c2c2c1CCC2
Ans. label 0

* * *

# TARGET OR TEST SYSTEM: Ubiquitin carboxyl-terminal hydrolase 17-like protein 5 (Homo sapiens) (UniProt A8MUK1)
# METHOD: ubiquitin-specific protease 17 DUB inhibitors, concentration-effect assay, cell-free, verification of initial screening actives (AID 1645864)
# ASSAY SETUP: purified USP17, ubiquitin-rhodamine cleavage fluorescence, 3 h
Active and inactive are the calls of the source.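 How the source made its calls: active means maximal inhibition of USP17 at or above 30% in the confirmation dose-response, a value not among the printed readouts; inactive means the rest.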
Reply using exactly one outcome from 1.0 for active, 0.0 for inactive

Past entries and their recorded results:
COc1cc2c(c(OCC(=O)Nc3ccc4c(c3)OCCO4)c1)C(=O)O[C@@H](C)CCCC(=O)CCCCC2 ... 1.0
CCOC(=O)c1cc2c(ccn2C)n1Cc1cccc2ccccc12 ... 0.0
Cc1cc(O)c2c3c(c(O)c4c(c13)O[C@@H](C)C4(C)C)C(=O)C2=O ... 1.0
CCOc1ccc2[nH]c(=O)c(CN(C(=O)c3cccs3)C3CCCC3)cc2c1 ... 1.0
NC(=O)c1nnn(-c2ccc(NC(=O)c3ccc(F)c(F)c3)cc2)n1 ... 1.0
COc1ccccc1NC(=O)c1nn(-c2cccc(F)c2)c(OC)cc1=O ... 1.0
O=C(NC1(O)C(=O)c2ccccc2C1=O)c1ccc(-c2csnn2)cc1 ... 1.0
COc1ccc(NC(=O)c2cc(-c3cccnc3)n[nH]2)cc1Cl ... 1.0
COc1ccc(C(=O)N2CCCC3(C2)Nc2cccnc2NC3=NC2CCCC2)cn1 (configuration not stated) ... 0.0
CC(=O)Nc1ccc(-n2cnc(C(=O)NC(C)c3ccccc3)c2)nc1 (configuration not stated) ... 1.0

Qu. I would be grateful if you could indicate the recorded call for COc1cccc(N2CCN(c3ccc4nnc(CCC(=O)N5CCc6ccccc6C5)n4n3)CC2)c1 .
Ans. 1.0

Qu. Next up: Cc1ccc2nc(N3CCc4ccccc4C3)c3nncn3c2c1
Ans. 0.0

Qu. Next up: CC1CCc2c(sc3nc(CC#N)[nH]c(=O)c23)C1 (configuration not stated)
Ans. 0.0

Qu. Next up: Cc1c(C)c2ccc(OCC(=O)NCc3ccncc3)c(C)c2oc1=O
Ans. 1.0

Qu. Next up: COc1ccc(C(=O)Nc2ccc3c(c2)C(=O)N(C)c2ccccc2O3)cc1
Ans. 0.0

Qu. Next up: Cc1nc(-c2ccc(NC(=O)N3CCN(c4ccccn4)CC3)cc2)no1
Ans. 0.0

Qu. Next up: Cc1cc(C(=O)Nc2ccc3nc(N4CCN(c5ncccn5)CC4)cc(C)c3c2)ccc1[N+](=O)[O-]
Ans. 1.0

Qu. Next up: N#Cc1ccc(COC(=O)c2ccc3ccccc3n2)cc1
Ans. 0.0

Qu. Next up: COc1ccc(-c2nc(C)c(C(=O)NCc3ccc(S(N)(=O)=O)cc3)s2)cc1
Ans. 0.0

Qu. Next up: O=C(Cn1ccc2ccc(N3CCOCC3)nc21)NCc1ccccc1F
Ans. 0.0

Qu. Next up: CC(C)c1ccc(NC(=O)COC(=O)c2ccc3[nH]c4c(c3c2)CCCC4)cc1
Ans. 1.0

Qu. Next up: O=C(Nc1cc(Cl)ccc1-n1cncn1)c1ccc(S(=O)(=O)N2CCCC2)cc1
Ans. 0.0

Qu. Next up: Cc1cc(C)cc(-n2ccnc(SCC(=O)Nc3cccc(Cl)c3)c2=O)c1
Ans. 1.0

Qu. Next up: Cc1ccc2c(Nc3ccc(CC(=O)O)cc3)c(C(=O)N3CCCC3)cnc2n1
Ans. 0.0
